Biological target: PSD-95 PDZ3 (Homo sapiens, UniProt P78352)
Construct: made in house; host or cells: E. coli One Shot BL21 Star (DE3)
Experiment: FP competition assay, PSD-95 PDZ3 (probe Cy5-CRIPT)
Assay type: binding
Settings: read-out: K i PDZ3
Procedure: We used a competition set-up, where a constant concentration of isolated PSD-95 PDZ domain and a labeled reference ligand was titrated with unlabeled peptides from the GPCR C-tail library, typically within a 1–512 µM concentration range, and the resulting curves were fitted to obtain the IC50, which was used to calculate the K i (Figure 1). […]
Peptide text beside a SMILES is read from it.
outcome-measure: Ki (µM)
Express it in µM; write the number only.

// returns reported Ki for input CC[C@H](C)[C@H](NC(=O)[C@H](CC(=O)O)NC(=O)[C@H](CCC(N)=O)NC(=O)[C@H](CCCNC(=N)N)NC(=O)[C@H](CC(=O)O)NC(=O)[C@H](CC(=O)O)NC(=O)[C@@H](N)Cc1ccc(O)cc1)C(=O)N[C@H](C(=O)N[C@@H](CC(=O)O)C(=O)N[C@@H](CC(C)C)C(=O)N[C@@H](CCC(N)=O)C(=O)N[C@H](C(=O)N[C@@H](CCC(=O)O)C(=O)N[C@H](C(=O)O)C(C)C)[C@@H](C)O)[C@@H](C)CC [BAI1] (H-YDDRQDIIDLQTEV-OH)
790

###

This section presents compounds with their documented pKd values.
biological target: PSD-95 PDZ1 (Homo sapiens, UniProt P78352)
Peptide text beside a SMILES is read from it.
Units for pKd: none; it is -log10 of a concentration expressed in mol/L.

Answered examples (2):
CC[C@H](C)[C@H](NC(=O)[C@H](CCCNC(=N)N)NC(=O)[C@H](CO)NC(=O)[C@H](C)NC(=O)[C@H](CS)NC(=O)[C@@H](NC(=O)CNC(=O)[C@H](CCCNC(=N)N)NC(=O)[C@H](CC(=O)O)NC(=O)[C@H](CC(=O)O)NC(=O)[C@@H](N)Cc1ccc(O)cc1)[C@@H](C)O)C(=O)N[C@@H](CO)C(=O)N[C@H](C(=O)N[C@@H](CC(C)C)C(=O)O)[C@@H](C)O [SSTR1 Mouse] (H-YDDRGTCASRISTL-OH)	3.57
CC[C@H](C)[C@H](NC(=O)[C@H](CC(=O)O)NC(=O)[C@H](CCC(N)=O)NC(=O)[C@H](CCCNC(=N)N)NC(=O)[C@H](CC(=O)O)NC(=O)[C@H](CC(=O)O)NC(=O)[C@@H](N)Cc1ccc(O)cc1)C(=O)N[C@H](C(=O)N[C@@H](CC(=O)O)C(=O)N[C@@H](CC(C)C)C(=O)N[C@@H](CCC(N)=O)C(=O)N[C@H](C(=O)N[C@@H](CCC(=O)O)C(=O)N[C@H](C(=O)O)C(C)C)[C@@H](C)O)[C@@H](C)CC [BAI1] (H-YDDRQDIIDLQTEV-OH)	3.92

Let us move to another entry and its pKd.
Bench note: what pKd did CC[C@H](C)[C@H](NC(=O)[C@H](CCCNC(=N)N)NC(=O)[C@H](CCC(=O)O)NC(=O)[C@H](CO)NC(=O)[C@@H](NC(=O)[C@@H](NC(=O)[C@H](CO)NC(=O)[C@H](CCCNC(=N)N)NC(=O)[C@H](CC(=O)O)NC(=O)[C@H](CC(=O)O)NC(=O)[C@@H](N)Cc1ccc(O)cc1)C(C)C)C(C)C)C(=O)N[C@@H](CO)C(=O)N[C@@H](CO)C(=O)N[C@H](C(=O)O)C(C)C [5-HTR2C] (H-YDDRSVVSERISSV-OH) show?
3.80

Source listed as paper PMC3653948.
